Entries annotated with measured residual activity
targetOfAssay: EPHA3 (human) (UniProt P29320)
Sequence (P29320 whole entry, looked up): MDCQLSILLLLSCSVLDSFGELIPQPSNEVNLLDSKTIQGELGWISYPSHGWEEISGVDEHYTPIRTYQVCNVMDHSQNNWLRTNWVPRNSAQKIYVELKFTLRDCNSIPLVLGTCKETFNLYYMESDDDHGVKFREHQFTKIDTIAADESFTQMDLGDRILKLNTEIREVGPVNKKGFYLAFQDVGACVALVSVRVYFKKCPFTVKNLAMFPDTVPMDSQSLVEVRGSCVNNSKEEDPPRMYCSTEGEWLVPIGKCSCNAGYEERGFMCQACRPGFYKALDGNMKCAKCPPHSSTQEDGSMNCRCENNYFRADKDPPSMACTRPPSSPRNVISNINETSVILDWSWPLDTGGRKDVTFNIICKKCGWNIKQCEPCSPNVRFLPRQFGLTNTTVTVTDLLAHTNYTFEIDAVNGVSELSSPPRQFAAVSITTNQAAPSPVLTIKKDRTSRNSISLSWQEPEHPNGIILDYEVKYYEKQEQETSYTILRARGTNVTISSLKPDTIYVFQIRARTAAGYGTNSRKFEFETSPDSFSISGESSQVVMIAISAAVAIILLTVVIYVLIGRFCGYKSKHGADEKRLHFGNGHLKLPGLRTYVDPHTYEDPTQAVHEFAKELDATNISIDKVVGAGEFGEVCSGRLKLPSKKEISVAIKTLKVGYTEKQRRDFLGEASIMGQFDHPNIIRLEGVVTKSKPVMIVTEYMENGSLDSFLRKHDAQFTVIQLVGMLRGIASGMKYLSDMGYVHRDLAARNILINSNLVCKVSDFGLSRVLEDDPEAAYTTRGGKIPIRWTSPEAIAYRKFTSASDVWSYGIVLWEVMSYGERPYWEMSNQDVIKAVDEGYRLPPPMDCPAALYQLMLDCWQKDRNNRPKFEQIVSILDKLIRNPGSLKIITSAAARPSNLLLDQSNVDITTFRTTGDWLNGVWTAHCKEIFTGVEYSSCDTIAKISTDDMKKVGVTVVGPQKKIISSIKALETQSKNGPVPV
testName: radiometric filter-binding kinase assay, Kinase HotSpot
cond: compound 0.5 µM; ATP 10 µM

[
  {
    "compound": "Cn1sc(=O)n(Cc2ccccc2)c1=O",
    "u": "%",
    "residual activity": 107
  },
  {
    "compound": "Cn1nc2c3c(cccc31)C(=O)c1ccccc1-2",
    "u": "%",
    "residual activity": 93.5
  },
  {
    "compound": "CCN(CC)CCCCN1c2ccccc2Oc2ccc(Cl)cc21",
    "u": "%",
    "residual activity": 101
  },
  {
    "compound": "COc1ccc(OC)c2c(=S)c3ccccc3[nH]c12",
    "u": "%",
    "residual activity": 94.9
  },
  {
    "compound": "Nc1nccc(-c2c(-c3ccc(F)cc3)ncn2C2CCNCC2)n1",
    "u": "%",
    "residual activity": 97.4
  },
  {
    "compound": "CCn1cnc2c(Nc3cccc(Cl)c3)nc(N[C@@H]3CCCC[C@@H]3N)nc21",
    "u": "%",
    "residual activity": 85.7
  },
  {
    "compound": "CN(C)C[C@H]1CCn2c(c(C3=C(c4cn(C)c5ccccc45)C(=O)NC3=O)c3ccccc32)C1",
    "u": "%",
    "residual activity": 99.2
  },
  {
    "compound": "O=C1Cc2c([nH]c3ccc(Br)cc23)-c2ccccc2N1",
    "u": "%",
    "residual activity": 96
  },
  {
    "compound": "Oc1ccc(Nc2nc(-c3ccc(Cl)cc3)cs2)cc1",
    "u": "%",
    "residual activity": 110
  },
  {
    "compound": "COc1cc2ncnc(N3CCN(C(=O)Nc4ccc(Oc5ccccc5)cc4)CC3)c2cc1OC",
    "u": "%",
    "residual activity": 93.7
  },
  {
    "compound": "Cc1nc2cc3nc(-c4cccs4)cnc3cc2n1C",
    "u": "%",
    "residual activity": 102
  },
  {
    "compound": "Cn1cnc2cc3c(Nc4cccc(Br)c4)ncnc3cc21",
    "u": "%",
    "residual activity": 82.9
  },
  {
    "compound": "CN([C@@H](Cc1ccc(OS(=O)(=O)c2cccc3cnccc23)cc1)C(=O)N1CCN(c2ccccc2)CC1)S(=O)(=O)c1cccc2cnccc12",
    "u": "%",
    "residual activity": 102
  },
  {
    "compound": "O=C1Nc2ccccc2/C1=C1\\Nc2ccccc2\\C1=N/O",
    "u": "%",
    "residual activity": 92
  },
  {
    "compound": "O=C(O)/C=C/c1cc(Br)c(Br)c(Br)c1Br",
    "u": "%",
    "residual activity": 92.3
  },
  {
    "compound": "O=C(Nc1cccc(Nc2cc(Nc3cccc(C(F)(F)F)c3)ncn2)c1)C1CC1",
    "u": "%",
    "residual activity": 98.4
  },
  {
    "compound": "O=C1NC(=O)/C(=C\\c2ccc3nccnc3c2)S1",
    "u": "%",
    "residual activity": 97.1
  },
  {
    "compound": "O=C1Nc2ccccc2/C1=C1/Nc2ccccc2/C1=N\\OCCC(O)CO (stereo not drawn)",
    "u": "%",
    "residual activity": 69
  },
  {
    "compound": "COc1ccc(CNC(=O)Nc2ncc([N+](=O)[O-])s2)cc1",
    "u": "%",
    "residual activity": 111
  },
  {
    "compound": "Nc1nnc2[nH]c3ccccc3nc1-2",
    "u": "%",
    "residual activity": 95.2
  },
  {
    "compound": "CC(C)c1nn(-c2c(Cl)cccc2Cl)c2nc(Cc3ccc(OCCO)cc3)nc(O)c12",
    "u": "%",
    "residual activity": 86.2
  },
  {
    "compound": "CC(C)[C@H](CO)Nc1nc(Nc2cc(N)cc(Cl)c2)c2ncn(C(C)C)c2n1",
    "u": "%",
    "residual activity": 86.6
  },
  {
    "compound": "O=C1NC(=O)C(c2c[nH]c3ccccc23)=C1c1c[nH]c2ccccc12",
    "u": "%",
    "residual activity": 95.1
  }
]

###

Entries and their measured residual activity follow.
targetOfAssay: EPHA1 (human)
testName: radiometric filter-binding kinase assay, Kinase HotSpot
cond: compound 0.5 µM; ATP 10 µM
measure: residual activity (%)

[
  {
    "smilesNotation": "COc1cc2ncnc(N3CCN(C(=O)Nc4ccc(Oc5ccccc5)cc4)CC3)c2cc1OC",
    "endpointValue": 102
  },
  {
    "smilesNotation": "CN([C@@H](Cc1ccc(OS(=O)(=O)c2cccc3cnccc23)cc1)C(=O)N1CCN(c2ccccc2)CC1)S(=O)(=O)c1cccc2cnccc12",
    "endpointValue": 102
  },
  {
    "smilesNotation": "CCN(CC)CCCCN1c2ccccc2Oc2ccc(Cl)cc21",
    "endpointValue": 90.5
  },
  {
    "smilesNotation": "CCn1cnc2c(Nc3cccc(Cl)c3)nc(N[C@@H]3CCCC[C@@H]3N)nc21",
    "endpointValue": 79.6
  },
  {
    "smilesNotation": "O=C1Nc2ccccc2/C1=C1\\Nc2ccccc2\\C1=N/O",
    "endpointValue": 99.4
  }
]

###

Measured residual activity, listed per entry for reference.
targetOfAssay: NUAK1 (human) (UniProt O60285)
Sequence (O60285 whole entry, looked up): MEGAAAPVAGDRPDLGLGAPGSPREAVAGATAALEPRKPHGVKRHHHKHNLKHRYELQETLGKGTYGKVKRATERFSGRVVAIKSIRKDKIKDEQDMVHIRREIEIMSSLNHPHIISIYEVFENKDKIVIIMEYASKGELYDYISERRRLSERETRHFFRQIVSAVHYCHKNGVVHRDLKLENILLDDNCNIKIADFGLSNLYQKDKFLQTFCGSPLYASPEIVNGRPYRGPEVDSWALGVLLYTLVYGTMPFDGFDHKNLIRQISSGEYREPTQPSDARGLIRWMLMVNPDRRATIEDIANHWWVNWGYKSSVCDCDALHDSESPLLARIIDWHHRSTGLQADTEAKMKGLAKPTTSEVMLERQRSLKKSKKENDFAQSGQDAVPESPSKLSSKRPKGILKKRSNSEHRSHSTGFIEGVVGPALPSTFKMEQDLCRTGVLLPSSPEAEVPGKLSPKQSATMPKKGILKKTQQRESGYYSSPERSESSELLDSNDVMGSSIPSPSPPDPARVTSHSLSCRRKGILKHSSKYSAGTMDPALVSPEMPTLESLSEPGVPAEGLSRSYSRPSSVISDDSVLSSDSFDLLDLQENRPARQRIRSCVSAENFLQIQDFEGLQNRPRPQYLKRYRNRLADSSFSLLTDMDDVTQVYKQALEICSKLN
testName: radiometric filter-binding kinase assay, Kinase HotSpot
cond: compound 0.5 µM; ATP 10 µM

[
  {
    "compound": "Cn1sc(=O)n(Cc2ccccc2)c1=O",
    "residual activity": "102%"
  },
  {
    "compound": "COc1ccc(CNC(=O)Nc2ncc([N+](=O)[O-])s2)cc1",
    "residual activity": "99.7%"
  },
  {
    "compound": "CC(C)c1nn(-c2c(Cl)cccc2Cl)c2nc(Cc3ccc(OCCO)cc3)nc(O)c12",
    "residual activity": "96.9%"
  },
  {
    "compound": "O=C1Nc2ccccc2/C1=C1/Nc2ccccc2/C1=N\\OCCC(O)CO (stereo not given)",
    "residual activity": "2.81%"
  },
  {
    "compound": "Cn1nc2c3c(cccc31)C(=O)c1ccccc1-2",
    "residual activity": "46.2%"
  }
]

###

targetOfAssay: UniProt:Q16539
Sequence (Q16539 whole entry, looked up): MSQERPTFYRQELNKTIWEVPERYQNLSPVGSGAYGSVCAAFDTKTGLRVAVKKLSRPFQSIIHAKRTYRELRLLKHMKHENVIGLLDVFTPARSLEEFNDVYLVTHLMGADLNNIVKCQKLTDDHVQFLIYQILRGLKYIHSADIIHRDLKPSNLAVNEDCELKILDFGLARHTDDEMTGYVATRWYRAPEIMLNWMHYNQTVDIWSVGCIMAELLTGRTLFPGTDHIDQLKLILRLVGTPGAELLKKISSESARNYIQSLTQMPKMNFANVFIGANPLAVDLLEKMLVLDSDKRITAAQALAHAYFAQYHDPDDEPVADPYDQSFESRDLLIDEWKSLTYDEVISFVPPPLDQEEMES
testName: radiometric filter-binding kinase assay, Kinase HotSpot
cond: compound 0.5 µM; ATP 10 µM
measure: residual activity (%)

[
  {
    "molecule": "Cc1nc2cc3nc(-c4cccs4)cnc3cc2n1C",
    "measure": "residual activity",
    "u": "%",
    "endpointValue": 97.5
  },
  {
    "molecule": "O=C1NC(=O)C(c2cn(CCCO)c3ncccc23)=C1c1cnccn1",
    "measure": "residual activity",
    "u": "%",
    "endpointValue": 107
  },
  {
    "molecule": "Cn1sc(=O)n(Cc2ccccc2)c1=O",
    "measure": "residual activity",
    "u": "%",
    "endpointValue": 101
  },
  {
    "molecule": "CCN(CC)CCCCN1c2ccccc2Oc2ccc(Cl)cc21",
    "measure": "residual activity",
    "u": "%",
    "endpointValue": 95.8
  },
  {
    "molecule": "Oc1ccc(Nc2nc(-c3ccc(Cl)cc3)cs2)cc1",
    "measure": "residual activity",
    "u": "%",
    "endpointValue": 98.6
  },
  {
    "molecule": "CC(=O)O/N=C1\\C(=C2\\C(=O)Nc3cc(Br)ccc32)Nc2ccccc21",
    "measure": "residual activity",
    "u": "%",
    "endpointValue": 99.2
  },
  {
    "molecule": "O=C1Nc2ccccc2/C1=C1/Nc2ccccc2/C1=N\\OCCC(O)CO (stereo unspecified)",
    "measure": "residual activity",
    "u": "%",
    "endpointValue": 101
  },
  {
    "molecule": "O=C(Nc1cccc(Nc2cc(Nc3cccc(C(F)(F)F)c3)ncn2)c1)C1CC1",
    "measure": "residual activity",
    "u": "%",
    "endpointValue": 98.2
  },
  {
    "molecule": "Cn1nc2c3c(cccc31)C(=O)c1ccccc1-2",
    "measure": "residual activity",
    "u": "%",
    "endpointValue": 93.6
  },
  {
    "molecule": "CC(C)c1nn(-c2c(Cl)cccc2Cl)c2nc(Cc3ccc(OCCO)cc3)nc(O)c12",
    "measure": "residual activity",
    "u": "%",
    "endpointValue": 96.8
  },
  {
    "molecule": "O=C1Nc2ccccc2/C1=C1\\Nc2ccccc2\\C1=N/O",
    "measure": "residual activity",
    "u": "%",
    "endpointValue": 97.2
  }
]

Sourced from the kinase profiling compilation of Christmann-Franck et al. (2016)
